# SUBJECT OF TEST: UniProt:O14843
# Sequence (O14843 whole entry): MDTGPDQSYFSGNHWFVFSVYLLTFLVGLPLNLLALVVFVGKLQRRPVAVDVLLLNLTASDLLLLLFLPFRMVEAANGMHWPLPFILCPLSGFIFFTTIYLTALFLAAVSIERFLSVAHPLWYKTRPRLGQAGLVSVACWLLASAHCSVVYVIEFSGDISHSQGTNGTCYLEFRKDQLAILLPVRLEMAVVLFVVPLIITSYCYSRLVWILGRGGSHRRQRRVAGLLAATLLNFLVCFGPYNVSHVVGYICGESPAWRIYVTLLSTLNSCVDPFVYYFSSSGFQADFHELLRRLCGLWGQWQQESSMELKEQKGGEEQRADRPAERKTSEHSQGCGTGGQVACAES
# EXPERIMENT: cell-based
# TEST CONDITIONS: HEK293, read-out: cAMP Emax
In this section we review reported Emax values for a set of molecules.
Write the number in % without appending the unit.

Solved entries (count: 4):
Measured Emax, CC1=C(C(=O)Nc2cc(Cl)ccc2Cl)C(c2ncco2)C2=C(CCCC2=O)N1 (centres unmarked) : 95

Measured Emax, CC1=C(C(=O)Nc2ccccc2C)C(c2cc(C)cs2)C2=C(CCCC2=O)N1 (centres unmarked) : 102

Measured Emax, CC1=C(C(=O)Nc2cc(Cl)ccc2Cl)C(c2cocn2)C2=C(CCCC2=O)N1 (centres unmarked) : 97

Measured Emax, CC1=C(C(=O)Nc2cc(Cl)ccc2Cl)C(C2CCCC2)C2=C(CCCC2=O)N1 (centres unmarked) : 99

More entries:
Measured Emax, CC1=C(C(=O)Nc2ccccc2C)C(C2CC2)C2=C(CCCC2=O)N1 (centres unmarked) : 102

Measured Emax, CC1=C(C(=O)Nc2ccccc2C)C(c2ccc(Br)o2)C2=C(CCCC2=O)N1 (centres unmarked) : 95

Measured Emax, CCCC1C(C(=O)Nc2ccccc2C)=C(C)NC2=C1C(=O)CCC2 (centres unmarked) : 101

Measured Emax, CC1=C(C(=O)Nc2ccccc2C)C(c2cccs2)C2=C(CCCC2=O)N1 (centres unmarked) : 102

Value source: paper PMC7307922
